Data credit: paper PMC6964649

# Test system: D. rerio embryos
# method: D. rerio embryotoxicity assay, direct application of ring-open photoform
# Assay type: in vivo, Danio rerio
# assayContext: direct application of 1 or ring-open photoform; zebrafish embryos at 3 dpf; 1 h incubation; final DMSO 0.2%; ambient light; 12–15 or 18–20 embryos; value ± STD
Starred links: 1 amine or outer side, 2 acyl side, 3 side chain; linkers in the order of their positions; H or OH if unused. Positions of bridges follow the written chain, without caps; N, C: chain ends. Non-standard residues stand in square brackets, D forms with d. Residues, ends and D or L forms follow the SMILES beside them. *: point of attachment. X2 = Cc1sc(C(=O)[C@@H]2CCCN2[*:2])cc1C1=C(c2cc(C(=O)[*:1])sc2C)CCC1; Leu(3R-OH) = CC(C)[C@@H](O)[C@H](N)C(=O)O; Isobutyryl = CC(C)C(=O)*; Orn = NCCC[C@H](N)C(=O)O; Dab = NCC[C@H](N)C(=O)O; NHiPr = CC(C)N*
The threshold is 3 µg/mL. Values of LD50 (open)^1h beneath it are tagged met; values meeting or exceeding it are tagged not met.

* Cc1sc2cc1C1=C(CCC1)c1cc(sc1C)C(=O)[C@@H]1CCCN1C(=O)[C@H](C(C)C)NC(=O)[C@H](CCCCN)NC(=O)[C@H](C(C)C)NC(=O)[C@H](CC(C)C)NC(=O)[C@H](CCCCN)NC(=O)[C@@H]1CCCN1C(=O)[C@@H](Cc1ccccc1)NC(=O)[C@H](C(C)C)NC(=O)[C@H](CCCCN)NC(=O)[C@H](CC(C)C)NC(=O)[C@H](CCCCN)NC(=O)[C@H](C(C)C)NC2=O [Peptide 18] (VKLKV[dF]PKLVKV; linker N-C via X2) | met
* Cc1sc2cc1C1=C(CCC1)c1cc(sc1C)C(=O)[C@@H]1CCCN1C(=O)[C@H](C(C)C)NC(=O)[C@H](CCCCN)NC(=O)[C@H](C(C)C)NC(=O)[C@@H](CCCCN)NC(=O)[C@H](CC(C)C)NC(=O)[C@@H]1CCCN1C(=O)[C@@H](Cc1ccccc1)NC(=O)[C@H](C(C)C)NC(=O)[C@H](CCCCN)NC(=O)[C@H](CC(C)C)NC(=O)[C@H](CCCCN)NC(=O)[C@H](C(C)C)NC2=O [Peptide 17] (VKLKV[dF]PL[dK]VKV; linker N-C via X2) | not met
* Cc1sc2cc1C1=C(CCC1)c1cc(sc1C)C(=O)[C@@H]1CCCN1C(=O)[C@H](C)NC(=O)[C@H](CCCN)NC(=O)[C@H](C(C)C)NC(=O)[C@@H]1CCCN1C(=O)[C@@H](Cc1ccccc1)NC(=O)[C@H](CC(C)C)NC(=O)[C@H](CCCN)NC(=O)[C@H](C)NC2=O [Peptide 4] (A[Orn]L[dF]PV[Orn]A; linker N-C via X2) | not met
* Cc1sc2cc1C1=C(CCC1)c1cc(sc1C)C(=O)[C@@H]1CCCN1C(=O)[C@H](C(C)C)NC(=O)[C@H](CCCN)NC(=O)[C@H](C(C)C)NC(=O)[C@@H]1CCCN1C(=O)[C@@H](Cc1ccccc1)NC(=O)[C@H](C(C)C)NC(=O)[C@H](CCCN)NC(=O)[C@H](CCNC(=O)C(C)C)NC2=O [Peptide 8] ([Dab](Isobutyryl)[Orn]V[dF]PV[Orn]V; linker N-C via X2) | not met
* CC[C@H](C)[C@@H]1NC(=O)c2cc(c(C)s2)C2=C(CCC2)c2cc(sc2C)C(=O)[C@@H]2CCCN2C(=O)[C@H](CC(C)C)NC(=O)[C@H](CCCN)NC(=O)[C@H]([C@@H](C)CC)NC(=O)[C@@H]2CCCN2C(=O)[C@H]2CCCN2C(=O)[C@H](CC(C)C)NC(=O)[C@H](CCCN)NC1=O [Peptide 9] (I[Orn]L[dP]PI[Orn]L; linker N-C via X2) | met
* Cc1sc2cc1C1=C(CCC1)c1cc(sc1C)C(=O)[C@@H]1CCCN1C(=O)[C@H](C(C)C)NC(=O)[C@H](CCCN)NC(=O)[C@H]([C@H](O)C(C)C)NC(=O)[C@@H]1CCCN1C(=O)[C@@H](Cc1ccccc1)NC(=O)[C@H](C(C)C)NC(=O)[C@H](CCCN)NC(=O)[C@H]([C@H](O)C(C)C)NC2=O [Peptide 15] ([Leu(3R-OH)][Orn]V[dF]P[Leu(3R-OH)][Orn]V; linker N-C via X2) | not met
* Cc1sc2cc1C1=C(CCC1)c1cc(sc1C)C(=O)[C@@H]1CCCN1C(=O)[C@H](CC(C)C)NC(=O)[C@H](CCCCN)NC(=O)[C@H](C(C)C)NC(=O)[C@H](CCCCN)NC(=O)[C@H](CC(C)C)NC(=O)[C@@H]1CCCN1C(=O)[C@@H](Cc1ccccc1)NC(=O)[C@H](C(C)C)NC(=O)[C@H](CCCCN)NC(=O)[C@H](CC(C)C)NC(=O)[C@H](CCCCN)NC(=O)[C@H](C(C)C)NC2=O [Peptide 16] (VKLKV[dF]PLKVKL; linker N-C via X2) | not met
* Cc1sc2cc1C1=C(CCC1)c1cc(sc1C)C(=O)[C@@H]1CCCN1C(=O)[C@H](C(C)C)NC(=O)[C@H](CCCN)NC(=O)[C@H](C(C)C)NC(=O)[C@@H]1CCCN1C(=O)[C@@H](Cc1ccccc1)NC(=O)[C@H](C(C)C)NC(=O)[C@H](CCCN)NC(=O)[C@H](CC(=O)NC(C)C)NC2=O [Peptide 7] (D(NHiPr)[Orn]V[dF]PV[Orn]V; linker N-C via X2) | not met
* Cc1sc2cc1C1=C(CCC1)c1cc(sc1C)C(=O)[C@@H]1CCCN1C(=O)[C@H](C(C)C)NC(=O)[C@H](CCCN)NC(=O)[C@H](C(C)C)NC(=O)[C@@H]1CCCN1C(=O)[C@@H](Cc1ccccc1)NC(=O)[C@H](C(C)C)NC(=O)[C@H](CCCN)NC(=O)[C@H]([C@H](O)C(C)C)NC2=O [Peptide 12] ([Leu(3R-OH)][Orn]V[dF]PV[Orn]V; linker N-C via X2) | not met
* Cc1sc2cc1C1=C(CCC1)c1cc(sc1C)C(=O)[C@@H]1CCCN1C(=O)[C@H](C(C)C)NC(=O)[C@H](CCCN)NC(=O)[C@H](C(C)C)NC(=O)[C@@H]1CCCN1C(=O)[C@@H](Cc1ccccc1)NC(=O)[C@H](C(C)C)NC(=O)[C@H](CCCN)NC(=O)[C@H]([C@@H](C)O)NC2=O [Peptide 6] (T[Orn]V[dF]PV[Orn]V; linker N-C via X2) | not met
